Test system: Xanthomonas campestris pv. campestris (Xcc) ATCC 33913
Experimental Protocol: Minimal inhibitory concentration (MIC) assay
Type: cell-based
Condition Parameters: 24 h, 28° C., ND = non-detected at tested concentrations (up to 200 μg/ml)
Square brackets hold non-standard residues; d marks the D form. Peptide text beside a SMILES is read from it. * marks the point of attachment. Palmitoyl = CCCCCCCCCCCCCCCC(=O)*
Field: Average MIC. Provide a value for each of the compounds that follow.
Please state the figure in µg/mL; there is no need to write the unit.

Given the compound CCCCCCCCCCCCCCCC(=O)N[C@@H](Cc1ccccc1)C(=O)N[C@H](CCCCN)C(=O)N[C@@H](Cc1ccccc1)C(=O)N[C@H](CCCCN)C(=O)N[C@H](CCCCN)C(N)=O [lipopeptide #15, p-FkFkk] (Palmitoyl-F[dK]F[dK][dK]-NH2) , write its reported Average MIC.
10

Given the compound CCCCCCCCCCCCCCCC(=O)N[C@H](CCCCN)C(=O)N[C@@H](Cc1ccccc1)C(=O)N[C@H](CCCCN)C(=O)N[C@@H](Cc1ccccc1)C(=O)N[C@@H](Cc1ccccc1)C(N)=O [lipopeptide #18, p-kFkFF] (Palmitoyl-[dK]F[dK]FF-NH2) , write its reported Average MIC.
50

* * *

Test system: Xanthomonas campestris pv. campestris (Xcc) ATCC 33913
Experimental Protocol: Minimal inhibitory concentration (MIC) assay
Type: cell-based
Condition Parameters: 24 h, 28° C., ND = non-detected at tested concentrations (up to 200 μg/ml)
Square brackets hold non-standard residues; d marks the D form. Peptide text beside a SMILES is read from it. * marks the point of attachment. Palmitoyl = CCCCCCCCCCCCCCCC(=O)*
Property: Average MIC (µg/mL)
Please state the figure in µg/mL; there is no need to write the unit.

Given the molecule CCCCCCCCCCCCCCCC(=O)N[C@H](CCCCN)C(=O)N[C@@H](Cc1ccccc1)C(=O)N[C@@H](Cc1ccccc1)C(=O)N[C@H](CCCCN)C(=O)N[C@H](CCCCN)C(N)=O [lipopeptide #14, p-kFFkk] (Palmitoyl-[dK]FF[dK][dK]-NH2) , write its reported Average MIC.
8

Given the molecule CCCCCCCCCCCCCCCC(=O)N[C@H](CCCCN)C(=O)N[C@H](CCCCN)C(=O)N[C@H](CCCCN)C(=O)N[C@@H](Cc1ccccc1)C(=O)N[C@@H](Cc1ccccc1)C(N)=O [lipopeptide #7, p-kkkFF] (Palmitoyl-[dK][dK][dK]FF-NH2) , write its reported Average MIC.
14

Given the molecule CCCCCCCCCCCCCCCC(=O)N[C@H](CCCCN)C(=O)N[C@@H](Cc1ccccc1)C(=O)N[C@H](CCCCN)C(=O)N[C@@H](Cc1ccccc1)C(=O)N[C@H](CCCCN)C(N)=O [lipopeptide #12, p-kFkFk] (Palmitoyl-[dK]F[dK]F[dK]-NH2) , write its reported Average MIC.
12

Given the molecule CCCCCCCCCCCCCCCC(=O)N[C@H](CCCCN)C(=O)N[C@H](CCCCN)C(=O)N[C@H](CCCCN)C(=O)N[C@H](CCCCN)C(=O)N[C@@H](Cc1ccccc1)C(N)=O [lipopeptide #2, p-kkkkF] (Palmitoyl-[dK][dK][dK][dK]F-NH2) , write its reported Average MIC.
6

* * *

Field: Average MIC. Provide a value for each of the compounds that follow.
Test system: Xanthomonas campestris pv. campestris (Xcc) ATCC 33913
Experimental Protocol: Minimal inhibitory concentration (MIC) assay
Assay type: cell-based
Condition Parameters: 24 h, 28° C., ND = non-detected at tested concentrations (up to 200 μg/ml)
Method: Bacterial strains and growth conditions: The bacterial strains used in this study are detailed in Table 2. […] Minimal inhibitory concentration (MIC) assay: MIC values were determined by broth microdilution in sterile 96-flat bottom well plates (Corning 3650) as described by Hayouka et al. (2013). […] Bacterial growth was determined after incubation of 24 h at 28° C. by measurement of the optical density (OD595 nm), using a Tecan infinite Pro Plate reader. […]
Square brackets hold non-standard residues; d marks the D form. Peptide text beside a SMILES is read from it. * marks the point of attachment. Palmitoyl = CCCCCCCCCCCCCCCC(=O)*
Kindly write the number and append the unit.

Given the compound CCCCCCCCCCCCCCCC(=O)N[C@H](CCCCN)C(=O)N[C@@H](Cc1ccccc1)C(=O)N[C@@H](Cc1ccccc1)C(=O)N[C@H](CCCCN)C(=O)N[C@@H](Cc1ccccc1)C(N)=O [lipopeptide #20, p-kFFkF] (Palmitoyl-[dK]FF[dK]F-NH2) , write its reported Average MIC.
100 µg/mL

Given the compound CCCCCCCCCCCCCCCC(=O)N[C@H](CCCCN)C(=O)N[C@H](CCCCN)C(=O)N[C@@H](Cc1ccccc1)C(=O)N[C@@H](Cc1ccccc1)C(=O)N[C@H](CCCCN)C(N)=O [lipopeptide #11, p-kkFFk] (Palmitoyl-[dK][dK]FF[dK]-NH2) , write its reported Average MIC.
6 µg/mL
